- Tested on: SK-MEL-2 melanoma
endpoint_label: GI50

[ask] Returns the measured GI50 for the input compound. Input: CCN1C(=O)CCCc2c1ccc(Nc1ncc(Cl)c(NC3[C@@H](C(N)=O)[C@@H]4C=C[C@H]3C4)n1)c2OC (some centres undefined)
[reply] 1440 nM

[ask] Repeat for the following compound: CCOc1cc(Br)c(C(C)NC(=O)c2cccc(OC)c2)cc1OCC (centres undefined)
[reply] 5540 nM

[ask] Repeat for the following compound: CC(=O)c1c(CN(C)c2ccccc2)n([O-])c2ccccc2[n+]1=O
[reply] > 100000 nM

[ask] Repeat for the following compound: CC(=O)N1N=C(c2ccc(Nc3ccnc4cc(Cl)ccc34)cc2)CC1c1ccc(Cl)cc1 (centres undefined)
[reply] > 100000 nM

[ask] Repeat for the following compound: COc1ccc(/C=c2\sc3n(c2=O)C2C(NN=3)N(C)C(=O)N2C)cc1 (centres undefined)
[reply] 2310 nM

[ask] Repeat for the following compound: Cc1cc(S(=O)(=O)/N=C/N(C)C)c(SC(=O)c2ccc(Cl)cc2)cc1Cl
[reply] 45800 nM

[ask] Repeat for the following compound: CC(C)N1CCN(Cc2ccc3c(NNC(=O)c4ccccc4)nc4cc(F)ccc4n23)CC1
[reply] 2780 nM

[ask] Repeat for the following compound: COc1ccc2c(C3(c4cn(C)c5cc(OC)ccc45)C(=O)Nc4ccc(Cl)cc43)cn(C)c2c1
[reply] 2970 nM

[ask] Repeat for the following compound: COc1cccc2c1-c1c(c3ccc([N+](=O)[O-])cc3c(=O)n1CCCN)C2=O
[reply] 1580 nM
